From: PubChem BioAssay

tested on: Aerobactin synthetase IucA (Klebsiella pneumoniae, hypervirulent); test: IucA enzyme inhibition, biochemical, LOPAC library, absorbance readout (AID 1346212); details: IucA enzyme assay, absorbance (OD) readout; stronger effect = lower value;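 tested at 8 µM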;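 note: 100% = no compound wells and 0% = no enzyme wells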
Active and inactive are the calls of the source. The rule behind the calls is not given here.
For each entry below, report its remaining activity value.

# annotated cases, reported remaining activity shown
NC(N)=NC(=O)c1nc(Cl)c(N2CCCCCC2)nc1N    120% (inactive)
NC(=O)OCC(COC(N)=O)c1ccccc1    100% (inactive)

Can you give me remaining activity for all of these, one by one?
1. NC12CC3CC(CC(C3)C1)C2
2. NC(=O)NO
3. NCCCNCCSP(=O)(O)O
4. CC1=C(C(=O)O)N2C(=O)[C@@H](NC(=O)[C@H](N)c3ccccc3)[C@H]2SC1

1. 119% (inactive)
2. 117% (inactive)
3. 108% (inactive)
4. 118% (inactive)

Can you give me remaining activity for all of these, one by one?
1. CC#C[C@]1(O)CC[C@H]2[C@@H]3CCC4=CC(=O)CCC4=C3[C@@H](c3ccc(N(C)C)cc3)C[C@@]21C
2. CC(C)Cc1ccc([C@H](C)C(=O)O)cc1
3. CCCn1c(=O)c2[nH]c(-c3ccc(OCC(=O)Nc4ccc(C#N)cc4)cc3)nc2n(CCC)c1=O
4. S=C(Nc1ccccc1)Nc1nccs1
5. CNC[C@H](O)c1ccc(O)c(O)c1
6. CC1(C)CCC(NC(=O)[C@@H](N)CCC(=O)O)CC1

111% (inactive)
111% (inactive)
109% (inactive)
125% (inactive)
94.5% (inactive)
116% (inactive)

Name the recorded remaining activity for `N[C@H]1CONC1=O` . 113% (inactive)
